Reference source for all entries: patent US4742053A

Test system: P. vulgaris No. 33
Experiment: MIC by agar plate dilution method
Assay type: cell-based
Conditions: Proteus vulgaris; P. vulgaris No. 33; 10^6 CFU/ml; read-out: Minimum Inhibitory Concentration

[
  {
    "Molecule": "CC(C)(O/N=C(\\C(=O)NC1C(=O)N2C(C(=O)[O-])=C(C[N+]3(C)CCc4ccccc4C3)CSC12)c1csc(N)n1)C(=O)O (single isomer, unassigned) [Isomer A of Ex. 8-E]",
    "MIC": "0.1 µg/mL"
  },
  {
    "Molecule": "CO/N=C(\\C(=O)NC1C(=O)N2C(C(=O)[O-])=C(C[N+]3(C)CCc4cc(OC(C)=O)c(OC(C)=O)cc4C3)CSC12)c1csc(N)n1 (stereo not drawn)",
    "MIC": "0.2 µg/mL"
  },
  {
    "Molecule": "CO/N=C(\\C(=O)NC1C(=O)N2C(C(=O)[O-])=C(C[N+]3(C)CCc4cc(OC(C)=O)ccc4C3)CSC12)c1csc(N)n1 (stereo not drawn)",
    "MIC": "0.39 µg/mL"
  }
]

###

Each entry below lists one item and its recorded MIC value.
Test system: E. coli C/Rms149
Experiment: MIC by agar plate dilution method
Type: cell-based
Details: Escherichia coli, read-out: Minimum Inhibitory Concentration, E. coli C/Rms149; 10^6 CFU/ml

[
  {
    "Compound": "CO/N=C(\\C(=O)NC1C(=O)N2C(C(=O)[O-])=C(C[N+]3(C)CCc4cc(OC(C)=O)c(OC(C)=O)cc4C3)CSC12)c1csc(N)n1 (stereo not drawn)",
    "Reading unit": "µg/mL",
    "Relational operator": "≤",
    "MIC": 0.1
  },
  {
    "Compound": "CC(C)(O/N=C(\\C(=O)N[C@@H]1C(=O)N2C(C(=O)[O-])=C(C[n+]3ccccc3)CS[C@H]12)c1csc(N)n1)C(=O)O [Ceftazidime, reference compound]",
    "Reading unit": "µg/mL",
    "Relational operator": "=",
    "MIC": 0.2
  },
  {
    "Compound": "CO/N=C(\\C(=O)NC1C(=O)N2C(C(=O)[O-])=C(C[N+]3(C)CCc4cc(OC)c(OC)cc4C3)CSC12)c1csc(N)n1 (stereo not drawn)",
    "Reading unit": "µg/mL",
    "Relational operator": "=",
    "MIC": 0.78
  },
  {
    "Compound": "C[N+]1(CC2=C(C(=O)[O-])N3C(=O)C(NC(=O)C(=NOC4(C(=O)O)CCC4)c4csc(N)n4)C3SC2)CCc2cc(O)c(O)cc2C1 (stereo not drawn)",
    "Reading unit": "µg/mL",
    "Relational operator": "=",
    "MIC": 0.025
  },
  {
    "Compound": "CC(C)(ON=C(C(=O)NC1C(=O)N2C(C(=O)[O-])=C(C[N+]3(C)CCc4cc(O)c(O)cc4C3)CSC12)c1csc(N)n1)C(=O)O (stereo not drawn)",
    "Reading unit": "µg/mL",
    "Relational operator": "=",
    "MIC": 0.0125
  },
  {
    "Compound": "CO/N=C(\\C(=O)NC1C(=O)N2C(C(=O)[O-])=C(C[N+]3(C)CCc4cc(O)ccc4C3)CSC12)c1csc(N)n1 (stereo not drawn)",
    "Reading unit": "µg/mL",
    "Relational operator": "=",
    "MIC": 0.1
  }
]

###

System: E. cloaceae Nek 39
Assay: MIC by agar plate dilution method
Assay type: cell-based
Settings: E. cloaceae Nek 39; 10^6 CFU/ml; read-out: Minimum Inhibitory Concentration
Each entry below lists one item and its recorded MIC value.

[
  {
    "Compound": "CC(C)(ON=C(C(=O)NC1C(=O)N2C(C(=O)[O-])=C(C[N+]3(C)CCc4cc(O)c(O)cc4C3)CSC12)c1csc(N)n1)C(=O)O (centres unmarked)",
    "Relational operator": "<",
    "MIC (ng/mL)": 6
  },
  {
    "Compound": "C[N+]1(CC2=C(C(=O)[O-])N3C(=O)C(NC(=O)C(=NOCC(=O)O)c4csc(N)n4)C3SC2)CCc2cc(O)c(O)cc2C1 (centres unmarked)",
    "Relational operator": "=",
    "MIC (ng/mL)": 6
  },
  {
    "Compound": "CON=C(C(=O)NC1C(=O)N2C(C(=O)[O-])=C(C[N+]3(C)CCc4c(ccc(O)c4O)C3)CSC12)c1csc(N)n1 (centres unmarked)",
    "Relational operator": "=",
    "MIC (ng/mL)": 25
  },
  {
    "Compound": "CO/N=C(\\C(=O)NC1C(=O)N2C(C(=O)[O-])=C(C[N+]3(C)CCc4cc(OC(C)=O)ccc4C3)CSC12)c1csc(N)n1 (centres unmarked)",
    "Relational operator": "=",
    "MIC (ng/mL)": 1560
  },
  {
    "Compound": "CC(C)ON=C(C(=O)NC1C(=O)N2C(C(=O)[O-])=C(C[N+]3(C)CCc4cc(O)c(O)cc4C3)CSC12)c1csc(N)n1 (centres unmarked)",
    "Relational operator": "=",
    "MIC (ng/mL)": 6
  }
]

###

Each entry below lists one item and its recorded MIC value.
Test system: E. coli C/Rms149
Assay: MIC by agar plate dilution method
Type: cell-based
Conditions: Escherichia coli, read-out: Minimum Inhibitory Concentration, E. coli C/Rms149; 10^6 CFU/ml

[
  {
    "Compound": "C[N+]1(CC2=C(C(=O)[O-])N3C(=O)C(NC(=O)C(=NOCC(=O)O)c4csc(N)n4)C3SC2)CCc2cc(O)c(O)cc2C1 (stereo not shown) [Ex. 14-F]",
    "Relational operator": "=",
    "MIC, µg/mL": 0.025
  },
  {
    "Compound": "CC(C)ON=C(C(=O)NC1C(=O)N2C(C(=O)[O-])=C(C[N+]3(C)CCc4cc(O)c(O)cc4C3)CSC12)c1csc(N)n1 (stereo not shown) [Ex. 13]",
    "Relational operator": "=",
    "MIC, µg/mL": 0.025
  },
  {
    "Compound": "CO/N=C(\\C(=O)NC1C(=O)N2C(C(=O)[O-])=C(C[N+]3(C)CCc4ccccc4C3)CSC12)c1csc(N)n1 (stereo not shown) [Ex. 1-B]",
    "Relational operator": "=",
    "MIC, µg/mL": 0.1
  },
  {
    "Compound": "CON=C(C(=O)NC1C(=O)N2C(C(=O)[O-])=C(C[N+]3(C)CCc4cc(O)c(O)cc4C3)CSC12)c1csc(N)n1 (stereo not shown) [Ex. 3-E]",
    "Relational operator": "=",
    "MIC, µg/mL": 0.1
  },
  {
    "Compound": "CON=C(C(=O)NC1C(=O)N2C(C(=O)[O-])=C(C[N+]3(C)CCc4c(ccc(O)c4O)C3)CSC12)c1csc(N)n1 (stereo not shown) [Ex. 11]",
    "Relational operator": "=",
    "MIC, µg/mL": 0.1
  },
  {
    "Compound": "CO/N=C(\\C(=O)N[C@@H]1C(=O)N2C(C(=O)O)=C(COC(C)=O)CS[C@H]12)c1csc(N)n1 [Cefotaxime, reference compound]",
    "Relational operator": "≤",
    "MIC, µg/mL": 0.05
  },
  {
    "Compound": "C[N+]1(CC2=C(C(=O)[O-])N3C(=O)C(NC(=O)C(=NOC4(C(=O)O)CCCC4)c4csc(N)n4)C3SC2)CCc2cc(O)c(O)cc2C1 (stereo not shown) [Ex. 18-G]",
    "Relational operator": "=",
    "MIC, µg/mL": 0.78
  },
  {
    "Compound": "CO/N=C(\\C(=O)NC1C(=O)N2C(C(=O)[O-])=C(C[N+]3(C)CCc4cc(OC(C)=O)ccc4C3)CSC12)c1csc(N)n1 (stereo not shown) [Ex. 9]",
    "Relational operator": "=",
    "MIC, µg/mL": 0.2
  },
  {
    "Compound": "CCO/N=C(\\C(=O)NC1C(=O)N2C(C(=O)[O-])=C(C[N+]3(C)CCc4ccccc4C3)CSC12)c1csc(N)n1 (stereo not shown) [Ex. 7-D]",
    "Relational operator": "=",
    "MIC, µg/mL": 0.39
  },
  {
    "Compound": "C[N+]1(CC2=C(C(=O)[O-])N3C(=O)C(NC(=O)C(=NOC4(C(=O)O)CC4)c4csc(N)n4)C3SC2)CCc2cc(O)c(O)cc2C1 (stereo not shown) [Ex. 17-E]",
    "Relational operator": "≤",
    "MIC, µg/mL": 0.05
  },
  {
    "Compound": "CON=C(C(=O)NC1C(=O)N2C(C(=O)[O-])=C(C[N+]3(C)CCc4cc(O)c(O)c(O)c4C3)CSC12)c1csc(N)n1 (stereo not shown) [Ex. 12]",
    "Relational operator": "=",
    "MIC, µg/mL": 0.78
  },
  {
    "Compound": "C[N+]1(CC2=C(C(=O)[O-])N3C(=O)C(NC(=O)C(=NOC4CCCC4)c4csc(N)n4)C3SC2)CCc2cc(O)c(O)cc2C1 (stereo not shown) [Ex. 16-D]",
    "Relational operator": "=",
    "MIC, µg/mL": 0.025
  },
  {
    "Compound": "CC(C)(O/N=C(\\C(=O)NC1C(=O)N2C(C(=O)[O-])=C(C[N+]3(C)CCc4ccccc4C3)CSC12)c1csc(N)n1)C(=O)O (single isomer, unassigned) [Isomer A of Ex. 8-E]",
    "Relational operator": "=",
    "MIC, µg/mL": 0.2
  }
]
